Numbers sourced from paper PMC10244618.

B1: NF2 (merlin) isoform 7, human, full length (507 aa, lacks exons 2-3 = isoform-1 residues 39-121; exon-16 C-terminus), P35240-4 (parent)
chain: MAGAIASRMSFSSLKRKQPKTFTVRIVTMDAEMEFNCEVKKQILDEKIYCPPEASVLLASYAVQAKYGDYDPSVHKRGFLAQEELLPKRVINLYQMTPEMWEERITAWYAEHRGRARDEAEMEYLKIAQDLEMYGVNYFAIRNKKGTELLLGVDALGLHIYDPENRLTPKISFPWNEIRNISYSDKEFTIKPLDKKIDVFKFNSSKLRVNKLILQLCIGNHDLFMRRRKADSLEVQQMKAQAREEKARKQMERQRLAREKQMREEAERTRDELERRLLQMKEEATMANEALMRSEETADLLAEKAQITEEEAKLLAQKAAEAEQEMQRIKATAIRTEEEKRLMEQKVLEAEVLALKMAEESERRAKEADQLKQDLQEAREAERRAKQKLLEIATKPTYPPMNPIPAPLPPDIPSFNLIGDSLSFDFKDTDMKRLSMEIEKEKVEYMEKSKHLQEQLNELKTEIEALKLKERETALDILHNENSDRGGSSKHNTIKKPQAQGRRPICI

variants of: B1; experiment: reverse yeast two-hybrid deep mutational scan (rY2H-seq): NF2 isoform 7 mutant library as bait mated with wild-type prey strains; selection on medium lacking adenine for non-interacting pairs; NextSeq paired-end sequencing; enrichment vs …; conditions: with EMILIN1 (elastin microfibril interfacer 1), Q9Y6C2; yeast diploids after mating (RBait_S3 x RPrey_S3), 30 °C, selection for reporter genes on NB agar; human ABL2 co-expressed as the kinase-dead K35M mutant …; HIGHER = WEAKER BINDING (the opposite of display enrichments): higher = stronger loss of interaction: reverse Y2H selects yeast in which bait and prey do NOT interact (growth without adenine), so a …; hits-only table; scale: rY2H score; numbering: uniprot, sequence starts at 1
endpoint_name: enrichment

I334K : 1.69

P: D420A
Q: L353T
Query string: When P and Q are compared, which has the higher number for enrichment? Lab note: record the label of whichever item you select.
Result string: Q
